molecular target: HCV NS3/4A protease (Hepatitis C virus genotype 1a (isolate H77) (HCV)); experiment: Inhibition assay (enzymatic assay), depsipeptide substrate hydrolysis; format: biochemical; settings: full-length NS3 protease 1 nM, 25 μM NS4A cofactor, 0.5 μM substrate, competitive inhibition model
Sequence (P27958 1027-1657): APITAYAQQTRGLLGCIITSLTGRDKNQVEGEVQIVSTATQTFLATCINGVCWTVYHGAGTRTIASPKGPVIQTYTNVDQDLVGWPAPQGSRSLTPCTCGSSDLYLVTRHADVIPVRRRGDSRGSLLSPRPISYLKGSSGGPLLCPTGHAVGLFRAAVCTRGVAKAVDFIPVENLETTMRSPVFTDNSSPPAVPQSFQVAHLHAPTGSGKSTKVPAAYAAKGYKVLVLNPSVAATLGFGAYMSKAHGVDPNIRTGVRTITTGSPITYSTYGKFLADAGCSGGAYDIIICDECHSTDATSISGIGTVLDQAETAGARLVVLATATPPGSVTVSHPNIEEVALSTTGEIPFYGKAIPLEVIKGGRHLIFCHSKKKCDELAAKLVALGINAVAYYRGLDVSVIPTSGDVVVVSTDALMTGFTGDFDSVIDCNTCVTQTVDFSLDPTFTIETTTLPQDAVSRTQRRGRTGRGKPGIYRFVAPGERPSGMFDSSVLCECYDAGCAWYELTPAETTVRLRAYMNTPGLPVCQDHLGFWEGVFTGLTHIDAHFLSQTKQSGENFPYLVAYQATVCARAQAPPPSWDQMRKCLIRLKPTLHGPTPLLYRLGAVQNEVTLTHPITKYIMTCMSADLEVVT
property_measured: Ki (µM)
All answers are understood in µM, so give the number only.

Any idea what its Ki is? The compound is COc1ccc2c(O[C@H]3C[C@H]4C(=O)NCCCCC/C=C\[C@@H]5C[C@@]5(C(=O)O)NC(=O)[C@@H]4C3)cc(-c3nc(C(C)C)cs3)nc2c1C
1

====

tested on: HCV replicons (Huh-Luc cells, NS3-NS5B regions of HCV type Ib); assay: Replicon assay (Huh-7 luc/neo cells, luciferase readout); format: cell-based; conditions: Hepatitis C virus, Huh-7, 72 h, three days incubation, luciferase activity
Give EC50 for every item shown.
All answers are understood in µM, so give the number only.

Quick check: EC50 on HCV replicons (Huh-Luc cells, NS3-NS5B regions of HCV type Ib), item CCc1c(OC)ccc2c(O[C@@H]3C[C@H]4C(=O)N[C@]5(C(=O)O)C[C@H]5/C=C\CCCCN(C)C(=O)[C@@H]4C3)cc(-c3nc(C(C)C)cs3)nc12 [Compound 71] ?
10

What do you get for COc1ccc2c(O[C@H]3C[C@H]4C(=O)NCCCCC/C=C\[C@@H]5C[C@@]5(C(=O)O)NC(=O)[C@@H]4C3)cc(-c3nc(C(C)C)cs3)nc2c1C [Compound 81] ?
10
